Test system: Botrytis cinerea
protocol summary: Percent growth of Botrytis cinerea after 72 hours of incubation
Assay type: functional
Set-up: concentration or dose not given beside the values
measured attribute: Growth (%)
All answers are understood in %, so give the number only.

Fill in the recorded Growth for this molecule, with Botrytis cinerea as test system: CCCCCC/C=C/c1c(OC)cc(=O)oc1C
29

Param readout= Growth; system= Botrytis cinerea; entry= COc1cc(C)oc(=O)c1-c1ccc(C=O)cc1 ; returns value.
65

Param readout = Growth; param system = Botrytis cinerea; param query = Cc1cc(/C=C/c2ccccc2)cc(=O)o1 ; response: value
59

Form entry - test system: Botrytis cinerea; read-out: Growth; molecule: CCC/C=C/c1c(OC)cc(=O)oc1C
39

Enter reported Growth observed with Botrytis cinerea for CCCCC/C=C/c1c(OC)cc(=O)oc1C
12

I'm curious: which Growth was measured for COc1cc(C)oc(=O)c1-c1ccc(Cl)cc1 tested on Botrytis cinerea?
58

Can you look up Growth on Botrytis cinerea for CCC/C=C/c1cc(C)oc(=O)c1 ?
47

Taken from ChEMBL document CHEMBL1136151.
